- Test Target: T1, human C1s (human, UniProt P09871 16-688)
- T1 construct: Analyte in the Biacore assays; also called hC1s; serum-derived human C1s (CompTech)
- T1 sequence: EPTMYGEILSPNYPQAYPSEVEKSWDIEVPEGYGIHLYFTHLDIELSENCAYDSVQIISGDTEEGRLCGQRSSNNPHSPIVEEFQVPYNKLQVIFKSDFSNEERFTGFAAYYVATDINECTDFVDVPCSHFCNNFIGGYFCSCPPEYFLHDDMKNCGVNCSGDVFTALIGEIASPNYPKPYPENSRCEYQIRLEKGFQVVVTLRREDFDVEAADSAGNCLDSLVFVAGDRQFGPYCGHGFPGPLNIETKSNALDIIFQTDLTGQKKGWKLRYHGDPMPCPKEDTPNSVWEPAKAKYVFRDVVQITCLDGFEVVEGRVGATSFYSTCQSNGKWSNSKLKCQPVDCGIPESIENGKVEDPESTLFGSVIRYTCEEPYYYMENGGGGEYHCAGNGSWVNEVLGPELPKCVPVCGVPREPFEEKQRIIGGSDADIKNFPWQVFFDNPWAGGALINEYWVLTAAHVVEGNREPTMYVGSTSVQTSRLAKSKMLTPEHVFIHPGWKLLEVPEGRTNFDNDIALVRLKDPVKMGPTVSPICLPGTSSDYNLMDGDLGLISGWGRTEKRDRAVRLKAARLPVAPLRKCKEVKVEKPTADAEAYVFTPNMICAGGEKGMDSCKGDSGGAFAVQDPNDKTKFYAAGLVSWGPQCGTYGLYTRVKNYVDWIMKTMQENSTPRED
- Procedure Text: SPR (Biacore T200, 37C), Ab captured on protein A/G; pH 5.8, 1.2 mM Ca
Catalogue of binders with associated koff
Just the number in s⁻¹, nothing appended.

# annotated cases, reported koff shown
Binder	Parameter Measured	Assay Value
C1_IPN92H0165-SG4GK/IPN93L0024-SK1 (antibody, human IgG4 S228P, kappa, name in Kabat numbering, V domains shown, Substitutions from IPN009VH2, Kabat numbering; also called IPN92H0165/IPN93L0024) VH: EVMLVESGGGLVKPGGSLRLSCAASGFTFSNYAMSWVRQAPGKGLEWVATISSGGSHTYYDDSVKGRFTISRDNSKDTLYLQMNSLRAEDTALYYCARLFTGHAMDYWGQGTLVTVSS VL: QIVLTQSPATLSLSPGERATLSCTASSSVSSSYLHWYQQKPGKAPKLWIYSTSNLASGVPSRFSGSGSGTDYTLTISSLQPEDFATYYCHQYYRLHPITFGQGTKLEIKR	koff	0.00228
C1_IPN92H0117-SG4GK/IPN93L0024-SK1 (antibody, human IgG4 S228P, kappa, name in Kabat numbering, V domains shown, Substitutions from IPN009VH2, Kabat numbering; also called IPN92H0117/IPN93L0024) VH: EVMLVESGGGLVKPGGSLRLSCAASGFTFSNYAMSWVRQAPGKGLEWVATISQGGSHTYYLDSVKGRFTISRDNSKDTLYLQMNSLRAEDTALYYCARLFTGHAMDYWGQGTLVTVSS VL: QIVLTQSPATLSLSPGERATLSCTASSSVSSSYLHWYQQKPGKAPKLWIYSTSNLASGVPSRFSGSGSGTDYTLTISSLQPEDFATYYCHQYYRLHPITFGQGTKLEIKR	koff	0.00799

Shifting focus to the binder that follows.
Assign koff to the following record: C1_IPN92H0282-SG4GK/IPN93L0024-SK1 (antibody, human IgG4 S228P, kappa, name in Kabat numbering, V domains shown, Substitutions from IPN009VH2, Kabat numbering; also called IPN92H0282/IPN93L0024) VH: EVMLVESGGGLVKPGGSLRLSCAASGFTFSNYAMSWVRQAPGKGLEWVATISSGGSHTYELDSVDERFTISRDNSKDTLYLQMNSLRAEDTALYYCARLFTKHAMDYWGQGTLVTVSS VL: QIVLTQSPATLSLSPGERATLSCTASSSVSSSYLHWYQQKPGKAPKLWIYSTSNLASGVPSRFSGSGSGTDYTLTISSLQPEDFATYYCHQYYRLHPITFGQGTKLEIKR
0.00998
